Notes on MIC obtained with Haemophilus influenzae.

compound	unit	MIC
CC[C@H]1OC(=O)[C@H](C)[C@@H](O[C@H]2C[C@@](C)(OC)[C@@H](O)[C@H](C)O2)[C@H](C)[C@@H](O[C@@H]2O[C@H](C)C[C@H](N(C)C)[C@H]2O)[C@](C)(O)C[C@@H](C)C(=O)[C@H](C)[C@@H](O)[C@]1(C)O	µg/mL	4
CC[C@H]1OC(=O)C(C)C(=O)[C@H](C)[C@@H](O[C@@H]2O[C@H](C)C[C@H](N(C)C)[C@H]2O)[C@](C)(OC(=O)Nc2ccccc2)C[C@@H](C)C(=O)[C@H](C)[C@H]2NC(=O)O[C@@]21C (some centres not stated)	µg/mL	8

---

Notes on MIC obtained with Haemophilus influenzae.
readout-kind: MIC

compound	readout-kind	observed-measurement
CC[C@H]1OC(=O)C(C)C(=O)[C@H](C)[C@@H](O[C@@H]2O[C@H](C)C[C@H](N(C)C)[C@H]2O)[C@](C)(OC(=O)N/C=C/c2ccc(-c3ccccn3)cc2)C[C@@H](C)C(=O)[C@H](C)[C@H]2NC(=O)O[C@@]21C (some centres undefined)	MIC	4 µg/mL
CC[C@H]1OC(=O)C(C)C(=O)[C@H](C)[C@@H](O[C@@H]2O[C@H](C)C[C@H](N(C)C)[C@H]2O)[C@](C)(OC(=O)N/C=C/c2ccc3ccccc3n2)C[C@@H](C)C(=O)[C@H](C)[C@H]2NC(=O)O[C@@]21C (some centres undefined)	MIC	4 µg/mL
CC[C@H]1OC(=O)C(C)C(=O)[C@H](C)[C@@H](O[C@@H]2O[C@H](C)C[C@H](N(C)C)[C@H]2O)[C@](C)(OC(=O)N/C=C/c2ccc(-c3cnccn3)cc2)C[C@@H](C)C(=O)[C@H](C)[C@H]2NC(=O)O[C@@]21C (some centres undefined)	MIC	4 µg/mL
CC[C@H]1OC(=O)C(C)C(=O)[C@H](C)[C@@H](O[C@@H]2O[C@H](C)C[C@H](N(C)C)[C@H]2O)[C@](C)(OC(=O)NCCCc2ccccc2)C[C@@H](C)C(=O)[C@H](C)[C@H]2NC(=O)O[C@@]21C (some centres undefined)	MIC	16 µg/mL
CC[C@H]1OC(=O)[C@H](C)C(=O)[C@H](C)[C@@H](O[C@@H]2O[C@H](C)C[C@H](N(C)C)[C@H]2O)[C@](C)(OC)C[C@@H](C)C(=O)[C@H](C)[C@H]2N(CCCCn3cnc(-c4cccnc4)c3)C(=O)O[C@]12C	MIC	2 µg/mL
CC[C@H]1OC(=O)C(C)C(=O)[C@H](C)[C@@H](O[C@@H]2O[C@H](C)C[C@H](N(C)C)[C@H]2O)[C@](C)(OC(=O)N/C=C/c2ccc(-c3ccccc3)cc2)C[C@@H](C)C(=O)[C@H](C)[C@H]2NC(=O)O[C@@]21C (some centres undefined)	MIC	8 µg/mL
CC[C@H]1OC(=O)C(C)C(=O)[C@H](C)[C@@H](O[C@@H]2O[C@H](C)C[C@H](N(C)C)[C@H]2O)[C@](C)(OC(=O)N/C=C/c2ccc3cccnc3c2)C[C@@H](C)C(=O)[C@H](C)[C@H]2NC(=O)O[C@@]21C (some centres undefined)	MIC	2 µg/mL
CC[C@H]1OC(=O)C(C)C(=O)[C@H](C)[C@@H](O[C@@H]2O[C@H](C)C[C@H](N(C)C)[C@H]2O)[C@](C)(OC(=O)NCCc2ccccc2)C[C@@H](C)C(=O)[C@H](C)[C@H]2NC(=O)O[C@@]21C (some centres undefined)	MIC	8 µg/mL
CC[C@H]1OC(=O)C(C)C(=O)[C@H](C)[C@@H](O[C@@H]2O[C@H](C)C[C@H](N(C)C)[C@H]2O)[C@](C)(OC(N)=O)C[C@@H](C)C(=O)[C@H](C)[C@H]2NC(=O)O[C@@]21C (some centres undefined)	MIC	2 µg/mL

---

Tested on: Staphylococcus aureus
test-summary: Minimum inhibitory concentration against Staphylococcus aureus OC4172 in presence of mouse serum
Format: functional
readout-kind: MIC (µg/mL)

compound	tested-target	observed-measurement
CC[C@H]1OC(=O)C(C)C(=O)[C@H](C)[C@@H](O[C@@H]2O[C@H](C)C[C@H](N(C)C)[C@H]2O)[C@](C)(OC(=O)N/C=C/c2ccc(-c3ccccn3)cc2)C[C@@H](C)C(=O)[C@H](C)[C@H]2NC(=O)O[C@@]21C (stereo not given in full)	Staphylococcus aureus	0.5
CC[C@H]1OC(=O)C(C)C(=O)[C@H](C)[C@@H](O[C@@H]2O[C@H](C)C[C@H](N(C)C)[C@H]2O)[C@](C)(OC(=O)N/C=C/c2ccc(-c3cnccn3)cc2)C[C@@H](C)C(=O)[C@H](C)[C@H]2NC(=O)O[C@@]21C (stereo not given in full)	Staphylococcus aureus	0.25
CC[C@H]1OC(=O)C(C)C(=O)[C@H](C)[C@@H](O[C@@H]2O[C@H](C)C[C@H](N(C)C)[C@H]2O)[C@](C)(OC(=O)N/C=C/c2ccc(-c3ccccc3)cc2)C[C@@H](C)C(=O)[C@H](C)[C@H]2NC(=O)O[C@@]21C (stereo not given in full)	Staphylococcus aureus	2
CC[C@H]1OC(=O)C(C)C(=O)[C@H](C)[C@@H](O[C@@H]2O[C@H](C)C[C@H](N(C)C)[C@H]2O)[C@](C)(OC(=O)N/C=C/c2ccc(-n3ccnc3)cc2)C[C@@H](C)C(=O)[C@H](C)[C@H]2NC(=O)O[C@@]21C (stereo not given in full)	Staphylococcus aureus	0.25
CC[C@H]1OC(=O)[C@H](C)[C@@H](O[C@H]2C[C@@](C)(OC)[C@@H](O)[C@H](C)O2)[C@H](C)[C@@H](O[C@@H]2O[C@H](C)C[C@H](N(C)C)[C@H]2O)[C@](C)(O)C[C@@H](C)C(=O)[C@H](C)[C@@H](O)[C@]1(C)O	Staphylococcus aureus	0.06

---

Each entry below carries its reported MIC.
Tested on: Staphylococcus aureus
test-summary: Minimum inhibitory concentration against Staphylococcus aureus OC4172
Assay type: functional

compound	MIC, µg/mL
CC[C@H]1OC(=O)[C@H](C)[C@@H](O[C@H]2C[C@@](C)(OC)[C@@H](O)[C@H](C)O2)[C@H](C)[C@@H](O[C@@H]2O[C@H](C)C[C@H](N(C)C)[C@H]2O)[C@](C)(O)C[C@@H](C)C(=O)[C@H](C)[C@@H](O)[C@]1(C)O	0.5
CC[C@H]1OC(=O)C(C)C(=O)[C@H](C)[C@@H](O[C@@H]2O[C@H](C)C[C@H](N(C)C)[C@H]2O)[C@](C)(OC(=O)NCCCc2ccccc2)C[C@@H](C)C(=O)[C@H](C)[C@H]2NC(=O)O[C@@]21C (some centres undefined)	2
CC[C@H]1OC(=O)C(C)C(=O)[C@H](C)[C@@H](O[C@@H]2O[C@H](C)C[C@H](N(C)C)[C@H]2O)[C@](C)(OC(=O)N/C=C/c2ccc(-n3cccn3)cc2)C[C@@H](C)C(=O)[C@H](C)[C@H]2NC(=O)O[C@@]21C (some centres undefined)	0.12
CC[C@H]1OC(=O)C(C)C(=O)[C@H](C)[C@@H](O[C@@H]2O[C@H](C)C[C@H](N(C)C)[C@H]2O)[C@](C)(OC(=O)N/C=C/c2ccc(-c3ccccc3)cc2)C[C@@H](C)C(=O)[C@H](C)[C@H]2NC(=O)O[C@@]21C (some centres undefined)	0.5
CC[C@H]1OC(=O)C(C)C(=O)[C@H](C)[C@@H](O[C@@H]2O[C@H](C)C[C@H](N(C)C)[C@H]2O)[C@](C)(OC(=O)N/C=C/c2ccc3cccnc3c2)C[C@@H](C)C(=O)[C@H](C)[C@H]2NC(=O)O[C@@]21C (some centres undefined)	0.12
CC[C@H]1OC(=O)C(C)C(=O)[C@H](C)[C@@H](O[C@@H]2O[C@H](C)C[C@H](N(C)C)[C@H]2O)[C@](C)(OC(=O)N/C=C/c2ccc(-c3ncccn3)cc2)C[C@@H](C)C(=O)[C@H](C)[C@H]2NC(=O)O[C@@]21C (some centres undefined)	0.12
CC[C@H]1OC(=O)[C@H](C)C(=O)[C@H](C)[C@@H](O[C@@H]2O[C@H](C)C[C@H](N(C)C)[C@H]2O)[C@](C)(OC)C[C@@H](C)C(=O)[C@H](C)[C@H]2N(CCCCn3cnc(-c4cccnc4)c3)C(=O)O[C@]12C	0.12
CC[C@H]1OC(=O)C(C)C(=O)[C@H](C)[C@@H](O[C@@H]2O[C@H](C)C[C@H](N(C)C)[C@H]2O)[C@](C)(OC(=O)N/C=C/c2ccccc2)C[C@@H](C)C(=O)[C@H](C)[C@H]2NC(=O)O[C@@]21C (some centres undefined)	0.25
CC[C@H]1OC(=O)C(C)C(=O)[C@H](C)[C@@H](O[C@@H]2O[C@H](C)C[C@H](N(C)C)[C@H]2O)[C@](C)(OC(=O)N/C=C/c2ccc(-c3cccnc3)cc2)C[C@@H](C)C(=O)[C@H](C)[C@H]2NC(=O)O[C@@]21C (some centres undefined)	0.25
CC[C@H]1OC(=O)C(C)C(=O)[C@H](C)[C@@H](O[C@@H]2O[C@H](C)C[C@H](N(C)C)[C@H]2O)[C@](C)(OC(=O)N/C=C/c2ccc(-n3ccnc3)cc2)C[C@@H](C)C(=O)[C@H](C)[C@H]2NC(=O)O[C@@]21C (some centres undefined)	0.12
CC[C@H]1OC(=O)C(C)C(=O)[C@H](C)[C@@H](O[C@@H]2O[C@H](C)C[C@H](N(C)C)[C@H]2O)[C@](C)(OC(=O)N/C=C/c2ccc(-c3ccncc3)cc2)C[C@@H](C)C(=O)[C@H](C)[C@H]2NC(=O)O[C@@]21C (some centres undefined)	0.5
CC[C@H]1OC(=O)C(C)C(=O)[C@H](C)[C@@H](O[C@@H]2O[C@H](C)C[C@H](N(C)C)[C@H]2O)[C@](C)(OC(=O)NCCc2ccccc2)C[C@@H](C)C(=O)[C@H](C)[C@H]2NC(=O)O[C@@]21C (some centres undefined)	1
CC[C@H]1OC(=O)C(C)C(=O)[C@H](C)[C@@H](O[C@@H]2O[C@H](C)C[C@H](N(C)C)[C@H]2O)[C@](C)(OC(=O)N/C=C/c2ccc(-c3ccccn3)cc2)C[C@@H](C)C(=O)[C@H](C)[C@H]2NC(=O)O[C@@]21C (some centres undefined)	0.12
CC[C@H]1OC(=O)C(C)C(=O)[C@H](C)[C@@H](O[C@@H]2O[C@H](C)C[C@H](N(C)C)[C@H]2O)[C@](C)(OC(N)=O)C[C@@H](C)C(=O)[C@H](C)[C@H]2NC(=O)O[C@@]21C (some centres undefined)	4
